target: UniProtKB P25106; assay: PathHunter CHO-K1 CXCR7 b-arrestin assay (agonistic activity); conditions: PathHunter CHO-K1 CXCR7 b-arrestin cell line
Kindly state pEC50 for each of the entries shown.
One number for each entry, as −log10 of the molar value.

As a guide, the following entries are already answered.
CC(c1cccc(NC(=O)c2ccncn2)c1)N1CCC(C(=O)NC2CCCCC2)CC1 (racemic) = 7.64
O=C(Nc1cccc(CN2CCC(C(=O)NC3CCCCC3)CC2)c1)c1cccc2ccccc12 = 7.34

Go through the items and report each one's pEC50.
1. Cc1cncc(C(=O)Nc2cccc(CN3CCC(C(=O)NC(C)(C)C)CC3)c2C)c1
2. Cc1cncc(C(=O)Nc2ccnc(CN3CCC(C(=O)NC4CCCCC4)CC3)n2)c1

Solution:
6.84
6.70

Go through the items and report each one's pEC50.
1. CCC(C)NC(=O)C1CCCN(Cc2cccc(NC(=O)c3cncc(C)c3)c2)CC1 (racemic)
2. O=C(Nc1cccc(CN2CCC(C(=O)NC3CCCCC3)CC2)c1)c1cccc(F)c1F
3. Cc1cccc(C(=O)Nc2cccc(CN3CCC(C(=O)NC4CC4)CC3)c2)n1
4. O=C(Nc1cccc(CN2CCC(C(=O)NC3CCCCC3)CC2)c1)c1ccc(N2CCCC2)cn1
5. CC(C)(C)NC(=O)C1CCN(Cc2cccc(NC(=O)c3ccc(C(F)(F)F)cc3)c2)CC1

Solution:
1. 7.48
2. 8.30
3. 8.52
4. 7.41
5. 8.40

---

target: CXCR7 (Homo sapiens (Human), UniProt P25106); assay: PathHunter CHO-K1 CXCR7 b-arrestin assay (agonistic activity); details: PathHunter CHO-K1 CXCR7 b-arrestin cell line
Sequence (P25106 whole entry): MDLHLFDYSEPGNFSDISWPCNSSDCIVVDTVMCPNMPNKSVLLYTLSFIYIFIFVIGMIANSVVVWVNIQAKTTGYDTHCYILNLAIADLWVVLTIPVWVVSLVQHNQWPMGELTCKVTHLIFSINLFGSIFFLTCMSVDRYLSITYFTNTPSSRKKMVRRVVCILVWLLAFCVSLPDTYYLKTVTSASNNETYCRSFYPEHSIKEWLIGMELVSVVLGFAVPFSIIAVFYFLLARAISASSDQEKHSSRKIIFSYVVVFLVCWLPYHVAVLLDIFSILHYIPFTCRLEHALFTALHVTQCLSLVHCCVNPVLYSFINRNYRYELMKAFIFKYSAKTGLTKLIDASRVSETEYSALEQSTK
Sequence (P32121 whole entry partner): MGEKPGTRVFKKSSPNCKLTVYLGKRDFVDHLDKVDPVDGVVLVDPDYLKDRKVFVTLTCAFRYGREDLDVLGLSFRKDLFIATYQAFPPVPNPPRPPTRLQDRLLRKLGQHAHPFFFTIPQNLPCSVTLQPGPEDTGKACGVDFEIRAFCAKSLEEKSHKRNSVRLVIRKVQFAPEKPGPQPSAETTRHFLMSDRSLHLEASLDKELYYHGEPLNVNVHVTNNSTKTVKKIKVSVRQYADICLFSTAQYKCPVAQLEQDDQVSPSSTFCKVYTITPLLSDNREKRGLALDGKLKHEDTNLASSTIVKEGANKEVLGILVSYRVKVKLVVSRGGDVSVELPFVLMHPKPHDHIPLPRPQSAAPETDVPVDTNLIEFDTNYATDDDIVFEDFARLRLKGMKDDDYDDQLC
pEC50: −log10 of the molar value.
Is pEC50 at least 8? Then rule met. If not, rule not met.

O=C(Nc1cccc(CN2CCC(C(=O)NC3CCCC3)CC2)c1)c1cncc(F)c1 = rule met

As a next step, examine the compound that follows.
Exercise: Has CC(C)CN(C)C(=O)C1CCN(Cc2cccc(NC(=O)c3ccc(F)cc3)c2)CC1 a recorded pEC50 greater than or equal to 8?
Solution: rule met

---

Target: CXCR7 (Homo sapiens (Human), UniProt P25106)
Test: PathHunter CHO-K1 CXCR7 b-arrestin assay (agonistic activity)
Details: PathHunter CHO-K1 CXCR7 b-arrestin cell line
Experimental: The CXCl12 receptor and CXCR7 agonistic activities of the compounds of formula (I) are determined in accordance with the following experimental method. The assay is using the PathHunter™ CHO-K1 CXCR7 b-arrestin cell line from DiscoverX. The system is based on the Enzyme Fragment Complementation Technology. Two complementing fragments of the b-galactosidase enzyme are expressed within stably transfected cells. […]
pEC50: −log10 of the molar value.
Is pEC50 at least 8? Then 1 (yes). If not, 0 (no).

Exercise: Has O=C(Nc1cccc(CN2CCC(C(=O)NC3CCCCC3)C2)c1)c1cccc(C(F)(F)F)n1 (racemic) [Example 2.099] a recorded pEC50 greater than or equal to 8?
Solution: 0 (no)

Exercise: Has CC(C)(C)NC(=O)C1CCN(Cc2cccc(NC(=O)c3cccnc3C(F)(F)F)c2)CC1 [Example 1.231] a recorded pEC50 greater than or equal to 8?
Solution: 0 (no)

Exercise: Has COc1ccc(C(=O)Nc2cccc(CN3CCC(C(=O)NC4CCCCC4)CC3)c2)cc1OC [Example 1.126] a recorded pEC50 greater than or equal to 8?
Solution: 0 (no)

Exercise: Has O=C(Nc1cccc(CN2CCC(C(=O)NC3CCCCC3)CC2)c1)c1ccc(F)c(F)c1 [Example 1.129] a recorded pEC50 greater than or equal to 8?
Solution: 1 (yes)

Exercise: Has O=C(Nc1cccc(CN2CCC(C(=O)NC3CCCCC3)CC2)c1)c1ccc(F)cc1 [Example 1.156] a recorded pEC50 greater than or equal to 8?
Solution: 1 (yes)

Exercise: Has O=C(Nc1ccc(Cl)c(CN2CCC(C(=O)NC3CCCC3)CC2)c1)c1cccc(C(F)(F)F)n1 [Example 1.218] a recorded pEC50 greater than or equal to 8?
Solution: 1 (yes)

---

Kindly state pEC50 for each of the entries shown.
target: CXCR7 (Homo sapiens (Human)); test: PathHunter CHO-K1 CXCR7 b-arrestin assay (agonistic activity); conditions: PathHunter CHO-K1 CXCR7 b-arrestin cell line
One number for each entry, as −log10 of the molar value.

O=C(Nc1cccc(CN2CCC(C(=O)NC3CCCCC3)CC2)c1)c1cc(C(F)(F)F)ccc1F [Example 1.135] = 8.15
O=C(Nc1cccc(CN2CCC(C(=O)NC3CCCCC3)CC2)c1)c1ccccc1Cl [Example 1.050] = 7.92
COc1cc(C(=O)Nc2cccc(CN3CCC(C(=O)NC4CCCCC4)CC3)c2)cc(Cl)n1 [Example 1.075] = 8.05
CCc1ccc(CN2CCC(C(=O)NC(C)(C)C)CC2)cc1NC(=O)c1ccc(F)cc1 [Example 1.328] = 8.10

Go through the items and report each one's pEC50.
1. CC(c1cccc(NC(=O)c2cccc(C(F)(F)F)n2)c1)N1CCC(C(=O)NC2CCCCC2)CC1 (racemic) [Example 1.187]
2. CC(c1cccc(NC(=O)c2ccc(F)cc2)c1)N1CCC(C(=O)NC2CCCCC2)CC1 (stereo not shown) [Example 1.166]
3. Cc1ccc(C(=O)Nc2cccc(CN3CCC(C(=O)NC4CCCCC4)CC3)c2)c(F)c1 [Example 1.119]
4. O=C(Nc1cccc(CN2CCC(C(=O)NC3CCCCC3)CC2)c1)c1ccc(F)cc1Cl [Example 1.133]
5. O=C(Nc1cccc(CN2CCC(C(=O)NC3CCCCC3)CC2)c1)c1ccc(Cl)cc1F [Example 1.130]
6. O=C(Nc1cccc(CN2CCC(C(=O)NC3CCCCC3)CC2)c1)c1ccc(Cl)c(F)c1 [Example 1.132]

Solution:
[8.15, 8.00, 8.22, 8.15, 8.15, 8.00]

---

molecular target: CXCR7 (Homo sapiens (Human)); experiment: PathHunter CHO-K1 CXCR7 b-arrestin assay (agonistic activity); settings: PathHunter CHO-K1 CXCR7 b-arrestin cell line
pEC50: −log10 of the molar value.
Would you mind sorting the entries by pEC50 according to these classes? I (below 7), II (7 to below 8), III (8 or more)

Answered cases to consult:
O=C(Nc1cccc(CN2CCC(C(=O)NC3CCCC3)CC2)c1)c1ccc(C(F)(F)F)cn1 [Example 1.210] = III
COC(=O)c1cncc(C(=O)Nc2cccc(CN3CCC(C(=O)NC4CCCCC4)CC3)c2)c1 [Example 1.350] = II
CC(C)Cc1ccc(C(=O)Nc2cccc(CN3CCC(C(=O)NC4CCCCC4)CC3)c2)cc1 [Example 1.041] = II
Cc1ccc(C(=O)Nc2cccc(CN3CCC(C(=O)NC4CCCCC4)CC3)c2)cc1 [Example 1.101] = III
CC(C)(C)NC(=O)C1CCN(Cc2cccc(NC(=O)c3ncc(Cl)cc3F)c2)CC1 [Example 1.340] = III

Exercise: Categorize the following entry: O=C(Nc1cccc(CN2CCC(C(=O)NC3CCCCC3)CC2)c1)c1ccc(Cl)s1 [Example 1.282]
Solution: III

Exercise: Categorize the following entry: C/C=C/C(=O)Nc1cccc(CN2CCC(C(=O)NC(C)(C)C)CC2)c1 [Example 1.335]
Solution: II

---

target: CXCR7 (Homo sapiens (Human)); assay: PathHunter CHO-K1 CXCR7 b-arrestin assay (agonistic activity); conditions: PathHunter CHO-K1 CXCR7 b-arrestin cell line
Kindly state pEC50 for each of the entries shown.
One number for each entry, as −log10 of the molar value.

As a guide, the following entries are already answered.
COc1cc(OC)cc(C(=O)Nc2cccc(CN3CCC(C(=O)NC4CCCCC4)CC3)c2)c1 [Example 1.125] = 8.00
O=C(Nc1cccc(CN2CCC(C(=O)NC3CCCCC3)CC2)c1)c1c(F)cccc1C(F)(F)F [Example 1.145] = 6.37

Go through the items and report each one's pEC50.
1. O=C(Nc1cccc(CN2CCC(C(=O)NC3CCCCC3)CC2)c1)c1cnc[nH]1 [Example 1.040]
2. Cc1cccnc1C(=O)Nc1cccc(CN2CCC(C(=O)NC3CCCCC3)CC2)c1 [Example 1.061]
3. CC(C)(C)NC(=O)C1CCN(Cc2cccc(NC(=O)c3cnc4ccccc4c3)c2)CC1 [Example 1.233]
4. O=C(Nc1cccc(CN2CCC(C(=O)NC3CCCCC3)CC2)c1)C1CCC1 [Example 1.150]

Solution:
[5.90, 9.00, 8.70, 7.60]

Go through the items and report each one's pEC50.
1. CCc1cncc(C(=O)Nc2cccc(CN3CCC(C(=O)NC(C)(C)C)CC3)c2)c1 [Example 1.241]
2. COc1cc(C(=O)Nc2cccc(CN3CCC(C(=O)NC4CCCCC4)CC3)c2)nc(OC)n1 [Example 1.062]
3. Cc1cnc(C(=O)Nc2cccc(C(C)N3CCC(C(=O)NC4CCCCC4)CC3)c2)cn1 (racemic) [Example 1.185]
4. COc1ccc(CN2CCC(C(=O)NC(C)(C)C)CC2)cc1NC(=O)c1ccc(F)cc1 [Example 1.306]
5. Cc1ccc(C(=O)Nc2cccc(CN3CCC(C(=O)NC4CCCCC4)CC3)c2)s1 [Example 1.281]
6. O=C(NC1CCCCC1)C1CCN(Cc2cccc(NC(=O)C3CC3c3ccccc3)c2)CC1 (racemic) [Example 1.029]

Solution:
8.40
7.24
7.82
8.40
8.52
8.30

The reported pEC50 of the compound CC(C)(C)NC(=O)C1CCN(Cc2nccc(NC(=O)c3cccc(C(F)(F)F)n3)n2)CC1 [Example 1.286] was 6.58
